# Study Target: HIV-1-Protease (Human immunodeficiency virus type 1 group M subtype B)
# Construct: Gereinigte HIV-Protease wurde mit synthetischem Peptid
# Assay Remarks: HIV-specific protease enzyme assay (purified HIV protease, synthetic peptide substrate, RP-HPLC analysis of cleavage products)
# Type: biochemical
# Settings: synthetic peptide imitating a Gag precursor cleavage site
What HIV-1-Protease-Inhibition IC95 was measured for each of the following?

Q) HIV-1-Protease (Human immunodeficiency virus type 1 group M subtype B) / HIV-1-Protease-Inhibition IC95 / Cc1ccc2nc(C(=O)N[C@@H](CC(N)=O)C(=O)N[C@@H](Cc3ccccc3)[C@H](O)CN3[C@H](C(F)(F)F)C[C@@H]4CCC[C@@H]43)ccc2c1 [Beispiel 11] : value?
A) 3,6 x 10^-11 Mol/l

Q) Same again, this time with Cc1cc2ncc(C(=O)N[C@@H](CC(N)=O)C(=O)N[C@@H](Cc3ccccc3)[C@H](O)CN3[C@H](C(F)(F)F)C[C@@H]4CCC[C@@H]43)nc2cc1C [Beispiel 8]
A) 3,2 x 10^-6 Mol/l

Q) Same again, this time with Cc1cc2ncc(C(=O)N[C@@H](CC(N)=O)C(=O)N[C@@H](Cc3ccccc3)[C@H](O)CN3[C@H](C(F)(F)F)C[C@@H]4CCC[C@@H]43)nc2cc1C [Beispiel 9]
A) 2,6 x 10^-9 Mol/l

Q) Same again, this time with NC(=O)C[C@H](NC(=O)COc1ccccc1-c1ccccc1)C(=O)N[C@@H](Cc1ccccc1)[C@H](O)CN1[C@H](C(F)(F)F)C[C@@H]2CCC[C@@H]21 [Beispiel 14]
A) 1,8 x 10^-7 Mol/l

Q) Same again, this time with NC(=O)C[C@H](NC(=O)c1ccc2ccccc2n1)C(=O)N[C@@H](Cc1ccccc1)[C@H](O)CN1[C@H](C(F)(F)F)C[C@@H]2CCC[C@@H]21 [Beispiel 4]
A) 3,3 x 10^-8 Mol/l

Q) Same again, this time with Cc1ccc2nc(C(=O)N[C@@H](CC(N)=O)C(=O)N[C@@H](Cc3ccccc3)[C@H](O)CN3[C@H](C(F)(F)F)C[C@@H]4CCC[C@@H]43)ccc2c1 [Beispiel 10]
A) 3,1 x 10^-7 Mol/l

Q) Same again, this time with NC(=O)C[C@H](NC(=O)c1ccc2ccccc2n1)C(=O)N[C@@H](Cc1ccccc1)[C@H](O)CN1[C@H](C(F)(F)F)C[C@@H]2CCC[C@@H]21 [Beispiel 3]
A) 2,2 x 10^-8 Mol/l

Q) Same again, this time with NC(=O)C[C@H](NC(=O)c1ccc2cc(Cl)ccc2n1)C(=O)N[C@@H](Cc1ccccc1)[C@H](O)CN1[C@H](C(F)(F)F)C[C@@H]2CCC[C@@H]21 [Beispiel 12]
A) 3,7 x 10^-9 Mol/l

Q) Same again, this time with NC(=O)C[C@H](NC(=O)c1cnc2ccccc2n1)C(=O)N[C@@H](Cc1ccccc1)[C@H](O)CN1[C@H](C(F)(F)F)C[C@@H]2CCC[C@@H]21 [Beispiel 1]
A) 1,9 x 10^-10 Mol/l

Q) Same again, this time with NC(=O)C[C@H](NC(=O)c1ccc2cc(Cl)ccc2n1)C(=O)N[C@@H](Cc1ccccc1)[C@H](O)CN1[C@H](C(F)(F)F)C[C@@H]2CCC[C@@H]21 [Beispiel 13]
A) 2,5 x 10^-10 Mol/l

Q) Same again, this time with Cc1cnc(C)c(COC(=O)N[C@@H](CC(N)=O)C(=O)N[C@@H](Cc2ccccc2)[C@H](O)CN2[C@H](C(F)(F)F)C[C@@H]3CCC[C@@H]32)c1 [Beispiel 17]
A) 3,7 x 10^-5 Mol/l

---

What pIC50 was measured for each of the following?
# Study Target: HIV-1-Protease (Human immunodeficiency virus type 1 group M subtype B, UniProt P04585)
# Construct: Gereinigte HIV-Protease wurde mit synthetischem Peptid
# Assay Remarks: HIV-specific protease enzyme assay (purified HIV protease, synthetic peptide substrate, RP-HPLC analysis of cleavage products)
# Assay type: biochemical
# Settings: purified HIV protease; synthetic peptide imitating a Gag precursor cleavage site; 50% inhibition of protease activity; read-out: HIV-1-Protease-Inhibition IC50
# From the text: Es wurde überraschend gefunden, daß die Verbindungen der allgemeinen Formel (I) eine außerordentlich starke Wirkung gegen Retroviren besitzen. Dies wird mit einem HIV-spezifischen Protease-Enzymtest belegt. Die Ergebnisse der unten aufgeführten Beispiele wurden nach dem in den folgenden Literaturangaben [vgl. […]
Schema: pIC50 number; meaning minus log10 of the concentration expressed in molar units.

Q) Fill in: pIC50 of NC(=O)C[C@H](NC(=O)COc1ccccc1-c1ccccc1)C(=O)N[C@@H](Cc1ccccc1)[C@H](O)CN1[C@H](C(F)(F)F)C[C@@H]2CCC[C@@H]21 [Beispiel 15] is ___
A) 8.66

Q) Same again, this time with NC(=O)C[C@H](NC(=O)COc1ccccc1-c1ccccc1)C(=O)N[C@@H](Cc1ccccc1)[C@H](O)CN1[C@H](C(F)(F)F)C[C@@H]2CCC[C@@H]21 [Beispiel 14]
A) 8.46

Q) Same again, this time with Cc1c(O)cccc1C(=O)N[C@@H](CC(N)=O)C(=O)N[C@@H](Cc1ccccc1)[C@H](O)CN1[C@H](C(F)(F)F)C[C@@H]2CCC[C@@H]21
A) 6.70

Q) Same again, this time with Cc1cnc(C)c(COC(=O)N[C@@H](CC(N)=O)C(=O)N[C@@H](Cc2ccccc2)[C@H](O)CN2[C@H](C(F)(F)F)C[C@@H]3CCC[C@@H]32)c1
A) 5.72
